Test system: SR
assay.text: NCI tumour cell line growth inhibition, 48 h
Calls of active or inactive are those of the source. Rule as the data show it: active = GI50 up to about 1.1 µM and inactive = higher.
GI50 values, listed per item
measurement.kind: GI50

C=CCN1C(=O)CC(=O)N(NC2=NNC3(C(=O)N2)c2ccccc2-c2ccccc23)C1=S 15.6 µM (inactive)
CC1=CC(=O)/C(=C/NC(=S)c2ccncc2)C(=O)O1 > 100 µM (inactive)
C[N+](C)(C)C.FC(F)(F)C1(C(F)(F)F)O[SiH-]2(OC(C(F)(F)F)(C(F)(F)F)c3ccccc32)c2ccccc21 14.5 µM (inactive)

---

Test system: OVCAR-8
assay.text: NCI tumour cell line growth inhibition, 48 h
Active and inactive are the calls of the source. Rule as the data show it: active = GI50 up to about 1.1 µM and inactive = higher.
Outcomes: active, inactive

compound	tested.target	class.name
COc1ccc(/C=C2\N=C(c3ccccc3)OC2=O)c(OCc2ccccc2)c1	OVCAR-8	inactive
CN(C)CCn1c(=O)c2ccc3c4c(nn3CCN(C)C)c3cc(N)ccc3n(c1=O)c24	OVCAR-8	active
CC1=C(c2ccccc2)NC(=S)C(C)C(c2ccccc2)=N1 (centres undefined)	OVCAR-8	inactive
N[C@@H]1C[C@H](N)c2c(Cl)sc(Cl)c21	OVCAR-8	inactive
C/C(CC(=O)Nc1ccc(NC(=O)/C(C)=N/NS(=O)(=O)c2ccc(C)cc2)cc1)=N\NS(=O)(=O)c1ccc(C)cc1	OVCAR-8	inactive
Clc1cc(Cl)c2c(Cl)cc(Cl)c3c2c1N=S=N3	OVCAR-8	inactive
Cc1ccc(C(=O)Nc2ccc(S(=O)(=O)O)c3cc(S(=O)(=O)O)cc(S(=O)(=O)O)c23)cc1NC(=O)Nc1cc(C(=O)Nc2ccc(S(=O)(=O)O)c3cc(S(=O)(=O)O)cc(S(=O)(=O)O)c23)ccc1C	OVCAR-8	inactive
COC1CCC(=O)N1CN(C(C)=O)c1ccc(C)cc1 (centres undefined)	OVCAR-8	inactive
N/C(=N\c1cccc(Cl)c1)c1ccccc1N	OVCAR-8	inactive
